# experimental protocol: in vivo
# experimental parameters: mouse, iv
# Lookup of reported LD50 keyed by entry

compound	LD50, mg/kg
CCC1(O)Cc2cc3c(c(O)c2C(OC2CC(N4CCOCC4)C(O)C(C)O2)C1)C(=O)c1c(O)cccc1C3=O (stereo not drawn)	65
CCC1(O)Cc2c(O)c3c(c(O)c2C(OC2CC(N4CCOCC4)C(O)C(C)O2)C1)C(=O)c1c(O)cccc1C3=O (stereo not drawn) [3'-deamino-3'-(4-morpholinyl)-R20X]	12.3
CCC1(O)CC(OC2CC(N3CCOCC3)C(O)C(C)O2)c2c(O)c3c(c(O)c2C1O)C(=O)c1cccc(O)c1C3=O (stereo not drawn)	3.55

###

Below, each entry is listed alongside its reported T/C.
# System: P388 leukemia
# experimental protocol: Antitumor activity against P388 leukemia in mice, i.p. administration (T/C, therapeutic index)
# Type: in vivo, CDF1 mice
# experimental parameters: mouse, in vivo, ip, 2 mg/kg/day

molecule	assayed system	qualifier symbol	T/C
CCC1(O)Cc2c(O)c3c(c(O)c2C(OC2CC(N4CCOCC4)C(O)C(C)O2)C1)C(=O)c1c(O)cccc1C3=O (stereo not shown) [3'-deamino-3'-(4-morpholinyl)-R20X]	P388 leukemia	=	177
COc1cccc2c1C(=O)c1c(O)c3c(c(O)c1C2=O)C[C@@](O)(C(=O)CO)C[C@@H]3O[C@H]1C[C@H](N)[C@H](O)[C@H](C)O1 [Adriamycin, reference compound]	P388 leukemia	>	217
CC[C@@]1(O)C[C@H](O[C@H]2C[C@H](N(C)C)[C@H](O[C@H]3C[C@H](O)[C@H](O[C@H]4CCC(=O)[C@H](C)O4)[C@H](C)O3)[C@H](C)O2)c2c(cc3c(c2O)C(=O)c2c(O)cccc2C3=O)[C@H]1C(=O)OC [Aclacinomycin, reference compound]	P388 leukemia	=	111
CCC1(O)CC(OC2CC(N3CCOCC3)C(O)C(C)O2)c2c(O)c3c(c(O)c2C1O)C(=O)c1cccc(O)c1C3=O (stereo not shown) [3'-deamino-3'-(4-morpholinyl)-R20X2]	P388 leukemia	>	246

###

Recorded ED (T/C 130%) for the following molecules
# Tested on: P388 leukemia
# experimental protocol: Antitumor activity against P388 leukemia in mice, i.p. administration (T/C, therapeutic index)
# Type: in vivo, CDF1 mice
# experimental parameters: Mus musculus, P388, ip, read-out: Dose for T/C = 130 %

molecule	qualifier symbol	ED (T/C 130%) [mg/kg/day]
CCC1(O)Cc2c(O)c3c(c(O)c2C(OC2CC(N4CCOCC4)C(O)C(C)O2)C1)C(=O)c1c(O)cccc1C3=O (stereo not shown) [3'-deamino-3'-(4-morpholinyl)-R20X]	=	0.75
CCC1(O)CC(OC2CC(N3CCOCC3)C(O)C(C)O2)c2c(O)c3c(c(O)c2C1O)C(=O)c1cccc(O)c1C3=O (stereo not shown)	=	0.35
CCC1(O)Cc2cc3c(c(O)c2C(OC2CC(N4CCOCC4)C(O)C(C)O2)C1)C(=O)c1c(O)cccc1C3=O (stereo not shown)	=	6.2
COc1cccc2c1C(=O)c1c(O)c3c(c(O)c1C2=O)C[C@@](O)(C(=O)CO)C[C@@H]3O[C@H]1C[C@H](N)[C@H](O)[C@H](C)O1 [Adriamycin, reference compound]	<	0.25
